Target: T1, human EphA1 (Homo sapiens, UniProt P21709)
T1 construct: a protein of the extracellular region of each human Eph receptor fused with the SEAP protein and the His tag; made in house; host or cells: Expi293F cells (culture supernatant)
T1 sequence (P21709 26-547 limits assumed): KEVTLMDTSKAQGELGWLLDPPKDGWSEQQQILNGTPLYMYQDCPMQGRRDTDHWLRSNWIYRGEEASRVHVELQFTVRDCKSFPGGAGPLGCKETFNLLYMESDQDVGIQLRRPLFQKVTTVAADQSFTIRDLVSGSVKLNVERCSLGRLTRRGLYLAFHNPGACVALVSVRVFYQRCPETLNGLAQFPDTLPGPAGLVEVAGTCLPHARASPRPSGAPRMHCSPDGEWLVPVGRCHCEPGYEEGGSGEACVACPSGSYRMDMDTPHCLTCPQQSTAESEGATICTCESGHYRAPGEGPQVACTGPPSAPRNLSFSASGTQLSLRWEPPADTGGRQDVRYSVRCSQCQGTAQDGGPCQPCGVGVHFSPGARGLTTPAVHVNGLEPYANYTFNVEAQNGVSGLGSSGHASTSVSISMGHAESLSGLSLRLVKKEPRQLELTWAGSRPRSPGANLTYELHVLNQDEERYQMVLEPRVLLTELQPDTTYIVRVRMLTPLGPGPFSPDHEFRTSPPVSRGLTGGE
Assay: Selectivity ELISA of humanized antibodies for human Eph receptor
Assay type: binding
Settings: coated protein 1 nM
Description: According to the method described in Example 7, a DNA sequence encoding the signal sequence and the extracellular region of each human Eph receptor (EphA1, EphA2, EphA3, EphA4, EphA5, EphA6, EphA7, EphA8, EphA10, EphB1, EphB2, EphB3, EphB4, and EphB6) was amplified by RT-PCR using tissue-derived total RNA and cloned into a pENTR1A vector (Invitrogen/Life Technologies) having a DNA sequence encoding SEAP protein and histidine tag. […]
Reported hEphA1-SEAP-: absorbance at 450 nm, percentage with respect to hEphA4-SEAP-His as 100% values for the following molecules.
Form entry: value (%) — number only.

77 (antibody, V domains shown, synthetic humanized antibody heavy chain variable region sequence; synthetic humanized antibody light chain variable region sequence) VH: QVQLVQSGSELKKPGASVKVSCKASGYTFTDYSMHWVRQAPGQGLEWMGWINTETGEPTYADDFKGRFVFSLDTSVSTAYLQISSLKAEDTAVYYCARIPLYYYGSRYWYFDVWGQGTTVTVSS VL: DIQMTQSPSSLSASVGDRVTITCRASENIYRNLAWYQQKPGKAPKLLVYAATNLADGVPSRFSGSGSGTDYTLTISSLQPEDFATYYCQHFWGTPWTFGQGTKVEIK | 4.5
158 (antibody, V domains shown, synthetic humanized antibody heavy chain variable region sequence; synthetic humanized antibody light chain variable region sequence) VH: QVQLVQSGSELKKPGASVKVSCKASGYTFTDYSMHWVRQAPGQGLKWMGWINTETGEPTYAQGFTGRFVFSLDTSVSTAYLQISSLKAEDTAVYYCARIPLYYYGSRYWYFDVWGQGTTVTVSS VL: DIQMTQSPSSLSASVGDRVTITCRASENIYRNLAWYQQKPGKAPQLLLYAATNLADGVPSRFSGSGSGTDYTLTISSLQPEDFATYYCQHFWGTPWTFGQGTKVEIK | 6.5

Could you share which hEphA1-SEAP-: absorbance at 450 nm, percentage with respect to hEphA4-SEAP-His as 100% value was measured for 69 (antibody, V domains shown, synthetic humanized antibody heavy chain variable region sequence; synthetic humanized antibody light chain variable region sequence) VH: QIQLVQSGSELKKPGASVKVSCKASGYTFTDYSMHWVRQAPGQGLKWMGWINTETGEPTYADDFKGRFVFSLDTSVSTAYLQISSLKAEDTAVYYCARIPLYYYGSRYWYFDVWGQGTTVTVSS VL: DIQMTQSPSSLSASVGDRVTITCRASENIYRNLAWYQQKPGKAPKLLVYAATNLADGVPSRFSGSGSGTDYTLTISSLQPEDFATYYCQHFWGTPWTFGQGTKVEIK ?
5.7

Could you share which hEphA1-SEAP-: absorbance at 450 nm, percentage with respect to hEphA4-SEAP-His as 100% value was measured for 76 (antibody, V domains shown, synthetic humanized antibody heavy chain variable region sequence; synthetic humanized antibody light chain variable region sequence) VH: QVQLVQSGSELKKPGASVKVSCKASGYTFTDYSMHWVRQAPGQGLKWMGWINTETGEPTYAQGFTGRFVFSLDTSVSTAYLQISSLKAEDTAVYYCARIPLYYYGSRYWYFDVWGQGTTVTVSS VL: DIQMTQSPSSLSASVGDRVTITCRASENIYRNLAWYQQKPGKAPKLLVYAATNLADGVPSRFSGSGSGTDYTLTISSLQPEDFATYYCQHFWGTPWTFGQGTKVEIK ?
5.1

Where these numbers come from: patent US10428140B2
